Tested on: K24384-001-R-PDC complex spheroid growth;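 further: percent of DMSO vehicle-treated spheroid viability set as 100%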
Assay: Anticancer human tumor K24384-001-R-PDC patient-derived pancreatic adenocarcinoma cell line growth inhibition [AhR]
Conditions: second compound 0.1 µM; first compound 1 µM; active compounds read low
readout: viability, T/C (%)
Write down the numeric answer in % and omit the unit.

Briefly, viability, T/C measured for O=C(C=Cc1cccc(S(=O)(=O)Nc2ccccc2)c1)NO + CC(CO)NC(=O)c1cc(-c2ccc(Cl)cc2)nn(-c2cnn(C)c2)c1=O : 65.4

Briefly, viability, T/C measured for COc1cc(Nc2ncc3c(n2)-c2ccc(Cl)cc2C(c2c(F)cccc2OC)=NC3)ccc1C(=O)O + Cc1ccccc1N=Nc1ccc(NC(=O)c2ccnn2C)c(C)c1 : 48.9

Briefly, viability, T/C measured for O=C(c1cc(Cc2n[nH]c(=O)c3ccccc23)ccc1F)N1CCN(C(=O)C2CC2)CC1 + Cc1cncc(-c2nc(NCCc3c[nH]c4ccccc34)c3ncn(C(C)C)c3n2)c1 : 96.3

Briefly, viability, T/C measured for CC1COCCN1c1cc(C2(S(C)(=N)=O)CC2)nc(-c2ccnc3[nH]ccc23)n1 (stereo not drawn) + CC(CO)NC(=O)c1cc(-c2ccc(Cl)cc2)nn(-c2cnn(C)c2)c1=O : 77.7

Briefly, viability, T/C measured for Nc1ccn(C2OC(CO)C(O)C2(F)F)c(=O)n1 (stereo not drawn) + Cc1cncc(-c2nc(NCCc3c[nH]c4ccccc34)c3ncn(C(C)C)c3n2)c1 : 42.9

Briefly, viability, T/C measured for COc1cc(Nc2ncc3c(n2)-c2ccc(Cl)cc2C(c2c(F)cccc2OC)=NC3)ccc1C(=O)O + CC(CO)NC(=O)c1cc(-c2ccc(Cl)cc2)nn(-c2cnn(C)c2)c1=O : 57.6

Briefly, viability, T/C measured for CC1(C)CCC(CN2CCN(c3ccc(C(=O)NS(=O)(=O)c4ccc(NCC5CCOCC5)c([N+](=O)[O-])c4)c(Oc4cnc5[nH]ccc5c4)c3)CC2)=C(c2ccc(Cl)cc2)C1 + CC(CO)NC(=O)c1cc(-c2ccc(Cl)cc2)nn(-c2cnn(C)c2)c1=O : 88.3
